melting point values for the compounds below.
VALUE_TYPE: melting point

compound=CCn1c(=O)c(CCc2nnn[nH]2)c(C2CCCCC2)c2ccc(C)nc21 result="207 to 209 °C"
compound=CCn1c(=O)c(CCC(=O)O)c(-c2cccc(Cl)c2)c2ccc(CO)nc21 result="157 to 160 °C"
compound=CCn1c(=O)c(CCC(=O)O)c(-c2cccc(Cl)c2)c2ccc(NC)nc21 result="202 to 204 °C"
compound=CCn1c(=O)c(CCCOC)c(-c2cccc(Cl)c2)c2ccc(C)nc21 result="96 to 97 °C"
compound=CCn1c(=O)c(CCC(=O)O)c(-c2cccc(Br)c2)c2ccc(C)nc21 result="161 to 162 °C"
compound=CCn1c(=O)c(C(N)=O)c(-c2cccc(Cl)c2)c2ccc(C)nc21 result="249 to 252 °C"
compound="CCn1c(=O)c(CCCC(=O)O)c(-c2cccc(Cl)c2)c2ccc(C)nc21 (hydrate or solvate)" result="146 to 148 °C"
compound=CCn1c(=O)c(CCCOC(=O)OC)c(-c2cccc(Cl)c2)c2ccc(C)nc21 result="92 to 93 °C"

====

Where a name gives a salt, the structure may show the parent alone.
VALUE_TYPE: melting point

compound=CCn1c(=O)c(CCc2nnn[nH]2)c(-c2cccc(Br)c2)c2ccc(C)nc21 result="194 to 196 °C"
compound=CCn1c(=O)c(CCCc2nnn[nH]2)c(-c2cccc(Cl)c2)c2ccc(C)nc21 result="155 to 158 °C"
compound=CCOC(=O)Nc1c(-c2cccc(Cl)c2)c2ccc(C)nc2n(CC)c1=O result="183 to 184 °C"
compound=CCn1c(=O)c(CCC(=O)O)c(-c2cccc(C)c2)c2ccc(C)nc21 result="174 to 175 °C"
compound=CCn1c(=O)c(CCC(=O)O)c(C2CCCCC2)c2ccc(C)nc21 result="155 to 156 °C"
compound=CCn1c(=O)c(CCN2CCC(C(=O)O)CC2)c(-c2cccc(Cl)c2)c2ccc(C)nc21 result="142 to 146 °C"
compound=CCn1c(=O)c(N)c(-c2cccc(Cl)c2)c2ccc(C)nc21 result="167 to 171 °C"
compound=CCn1c(=O)c(CCC(=O)O)c(-c2cccc(Cl)c2)c2ccc(C=NO)nc21 result="234 to 238 °C"
compound=CCn1c(=O)c(CCC(=O)O)c(-c2cccc(Cl)c2)c2ccc(Cl)nc21 result="197 to 199 °C"
compound=CCn1c(=O)c(-c2cccc(C(=O)O)c2)c(-c2cccc(Cl)c2)c2ccc(C)nc21 result="254 to 256 °C"
compound=CCn1c(=O)c(CCC(=O)O)c(-c2cccs2)c2ccc(C)nc21 result="188 to 189 °C"
compound="CCn1c(=O)c(C2CCNCC2)c(-c2cccc(Cl)c2)c2ccc(C)nc21 (as salt: fumarate) [Example 28, monofumarate]" result="225 to 227 °C"
compound="CCn1c(=O)c(CCC(=N)N)c(-c2cccc(Cl)c2)c2ccc(C)nc21 (as salt: hydrochloride) [Example 40, monohydrochloride]" result="228 to 230 °C"
compound=CCn1c(=O)c(CCCNS(C)(=O)=O)c(-c2cccc(Cl)c2)c2ccc(C)nc21 result="140 to 141 °C"
compound=CCn1c(=O)c(CCCO)c(-c2cccc(Cl)c2)c2ccc(C)nc21 result="109 to 110 °C"
compound=CCn1c(=O)c(CCC(=O)N(C)C)c(-c2cccc(Cl)c2)c2ccc(C)nc21 result="134 to 136 °C"
compound=CCOC(=O)c1c(-c2cccc(Cl)c2)c2ccc(C)nc2n(CC)c1=O result="119 to 121 °C"
